biological target: recombinant human Meningioma Expressed Antigen 5 (MGEA5), also referred to as O-GlcNAcase (OGA) (Homo sapiens, UniProt O60502); construct: Full length OGA enzyme was purchased at OnGene (cat #TP322411); purchased OnGene (so in the source); assay: OGA biochemical assay: inhibition of hydrolysis of fluorescein mono-ß-D-N-Acetyl-Glucosamine (FM-GlcNAc), fluorescence readout; details: FM-GlcNAc substrate, read-out: Enzymatic Emax (%)
Sequence (O60502 whole entry): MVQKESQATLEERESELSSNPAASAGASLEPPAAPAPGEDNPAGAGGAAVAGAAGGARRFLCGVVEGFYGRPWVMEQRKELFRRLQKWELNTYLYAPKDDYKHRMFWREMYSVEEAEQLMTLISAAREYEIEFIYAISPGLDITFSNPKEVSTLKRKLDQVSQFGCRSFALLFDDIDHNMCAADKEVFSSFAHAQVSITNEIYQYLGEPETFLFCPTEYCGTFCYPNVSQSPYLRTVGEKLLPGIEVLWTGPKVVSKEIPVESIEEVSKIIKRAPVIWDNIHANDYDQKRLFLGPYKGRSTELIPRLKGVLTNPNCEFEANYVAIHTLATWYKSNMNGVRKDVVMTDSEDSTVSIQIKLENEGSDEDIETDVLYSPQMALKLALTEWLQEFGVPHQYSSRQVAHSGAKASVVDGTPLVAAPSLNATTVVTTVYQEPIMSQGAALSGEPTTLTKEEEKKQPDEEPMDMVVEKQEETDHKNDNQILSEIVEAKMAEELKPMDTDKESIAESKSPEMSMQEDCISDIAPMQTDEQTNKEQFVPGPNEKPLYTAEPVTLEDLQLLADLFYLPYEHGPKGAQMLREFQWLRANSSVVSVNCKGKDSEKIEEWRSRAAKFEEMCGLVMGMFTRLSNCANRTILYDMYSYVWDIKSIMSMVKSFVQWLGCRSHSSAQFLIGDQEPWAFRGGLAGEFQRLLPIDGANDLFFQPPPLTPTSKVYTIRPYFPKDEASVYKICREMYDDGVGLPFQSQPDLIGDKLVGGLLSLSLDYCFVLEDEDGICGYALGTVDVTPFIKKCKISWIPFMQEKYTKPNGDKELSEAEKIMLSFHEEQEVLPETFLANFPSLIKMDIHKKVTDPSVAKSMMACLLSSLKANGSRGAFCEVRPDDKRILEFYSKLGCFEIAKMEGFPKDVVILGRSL
measured property: Emax (%)

structure smiles: CCCCn1ccc2c(Nc3c(C)cc4c(cnn4C)c3C)nccc21
Emax / %: 102

structure smiles: CCCCn1ccc2c(Nc3c(C)cc4c(ncn4C)c3C)nccc21
Emax / %: 99

structure smiles: Cc1cc(C(F)(F)F)nc(C)c1Nc1nccc2c1ccn2CC(C)(F)F
Emax / %: 102

structure smiles: Cc1cc(OC(F)F)nc(C)c1Nc1nccc2c1ccn2CC(C)(F)F
Emax / %: 101

structure smiles: Cc1cc(Cl)cc(C(F)(F)F)c1Nc1nccc2c1ccn2CC(C)(F)F
Emax / %: 100

Where do these numbers come from? They come from patent US20210277003A1.
